Exercise: for every item that follows, state its recorded PBM binding z-score.
# System: LXRb homodimer (NR concentration 270 nM)
# Assay text: PBM binding z-score (relative to random genomic background probes); higher = stronger binding; sequences stand for … in GC…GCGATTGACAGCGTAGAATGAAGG
// no unit, no text: just the number

Kindly state the measured PBM binding z-score obtained for AGAATGAGGTTATACGTAGATCAGGGCAGAAAGT with LXRb homodimer (NR concentration 270 nM).
-0.0553

Kindly state the measured PBM binding z-score obtained for TGAATGAGGTAATAAGATCAGGGAACGTTGCAAA with LXRb homodimer (NR concentration 270 nM).
-0.0513

Kindly state the measured PBM binding z-score obtained for ATATGTAGGTTAACGGTCATTCAGGTTGGTTCGC with LXRb homodimer (NR concentration 270 nM).
1.2

Kindly state the measured PBM binding z-score obtained for GATACAGGGTCAAGGCCAAAGTACGCGTATTGAT with LXRb homodimer (NR concentration 270 nM).
0.33

Kindly state the measured PBM binding z-score obtained for ACAGACAGGTGATGAAGGTAAGTCAGGCTATCAT with LXRb homodimer (NR concentration 270 nM).
-0.155

Kindly state the measured PBM binding z-score obtained for GCTGCTAGGTCAACTGACGGTCAGCTAAAGCTCG with LXRb homodimer (NR concentration 270 nM).
0.152

Kindly state the measured PBM binding z-score obtained for TGAATGAGGTTGAAGATCAGGGAACGTGGCGTCG with LXRb homodimer (NR concentration 270 nM).
0.232

Kindly state the measured PBM binding z-score obtained for CCTAATTGGTCAAGGTCACACACGCTATAGGTAC with LXRb homodimer (NR concentration 270 nM).
1.18

Kindly state the measured PBM binding z-score obtained for TGAATGAGGCTAAAGATCAGGGAACGTGGCGTCG with LXRb homodimer (NR concentration 270 nM).
-0.646

Kindly state the measured PBM binding z-score obtained for CAAACTATGTCACCGGAAGGTCAAAGTCCGCATG with LXRb homodimer (NR concentration 270 nM).
1.52

Kindly state the measured PBM binding z-score obtained for CCTGCTAGGTCAATGGTCAGCTTAAGCAGCTCGC with LXRb homodimer (NR concentration 270 nM).
-0.1

Kindly state the measured PBM binding z-score obtained for TCTCGGAGGACACGGAGGTCAGAGCTTTCCAGAG with LXRb homodimer (NR concentration 270 nM).
-1.06

Kindly state the measured PBM binding z-score obtained for ATCGAAAGGTCGAAGGTGAGAATACCCACCCGAA with LXRb homodimer (NR concentration 270 nM).
0.451

Kindly state the measured PBM binding z-score obtained for TAGCCTAGCTCATGCGGGCCAGTATAGTGTCGGC with LXRb homodimer (NR concentration 270 nM).
-1.43

Kindly state the measured PBM binding z-score obtained for GGAACGAGGGCATTCGCGTTGATAGCATGGCGAT with LXRb homodimer (NR concentration 270 nM).
-0.618

Kindly state the measured PBM binding z-score obtained for GAAACAGGGTCAAGGCCAGAGTACGCGTATTGAT with LXRb homodimer (NR concentration 270 nM).
-0.239

Kindly state the measured PBM binding z-score obtained for ATATGTATGTTAGCTGGGGTCATTCAGACTAGGC with LXRb homodimer (NR concentration 270 nM).
1.31

Kindly state the measured PBM binding z-score obtained for AATACAGGGTCATCGTAGGCCCGAGTACGCACAG with LXRb homodimer (NR concentration 270 nM).
0.935

Kindly state the measured PBM binding z-score obtained for AGAATGAGGTTATACGTAGATCAGGGAGGAAAGT with LXRb homodimer (NR concentration 270 nM).
0.198

Kindly state the measured PBM binding z-score obtained for TTACCAAGGTGAAGGTCGTTTATCCCTCTGTAGA with LXRb homodimer (NR concentration 270 nM).
-0.0351

Kindly state the measured PBM binding z-score obtained for GCTCGGAGGACAAGGTCAGACCTTTGTCCGTAGA with LXRb homodimer (NR concentration 270 nM).
0.0255

Kindly state the measured PBM binding z-score obtained for CCTTACGGGTCACTGACAGGTGATAGCATTTGGA with LXRb homodimer (NR concentration 270 nM).
-0.315

Kindly state the measured PBM binding z-score obtained for AGAATGAGGTTATTAAGATCATGGAATTGCGGTC with LXRb homodimer (NR concentration 270 nM).
-0.00587

Kindly state the measured PBM binding z-score obtained for ATATGGAGGTTACATCCGGGTCATTCAGGCTATG with LXRb homodimer (NR concentration 270 nM).
0.764

Kindly state the measured PBM binding z-score obtained for AGAACGAGGGCAATGAGATGATAGCACGGGTGGC with LXRb homodimer (NR concentration 270 nM).
-0.486

Kindly state the measured PBM binding z-score obtained for TCATATAGGTAATACAGGTCAAAGTCGGCATCTA with LXRb homodimer (NR concentration 270 nM).
1.69

###

# Tested on: PPARg:RXRa DBDmut IVT, anti-RXR (DBD mutation: RXRa K156A/R161A, NR concentration 270 nM, RXRa partner concentration 90 nM)
# Assay text: PBM binding z-score (relative to random genomic background probes); higher = stronger binding; sequences stand for … in GC…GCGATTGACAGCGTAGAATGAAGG
Quick rule for you: PBM binding z-score at 2 or higher means Condition met, lower means Condition not met.

Please check the record GCGACTGGGGCATCAGCAGGTTACCCTAACTTAA and state if its PBM binding z-score is at or above 2.
Condition met

Please check the record ATCTCTAGGTAAAGATAGGTCAGTGAATGCAAAT and state if its PBM binding z-score is at or above 2.
Condition met

Please check the record TAGCCTAGGTCATGCGGGCCAGTGTAGTGTCGGC and state if its PBM binding z-score is at or above 2.
Condition not met

Please check the record ACTGACGGGTCAACGAGGTTATAGCACGCGTATA and state if its PBM binding z-score is at or above 2.
Condition not met

Please check the record CTCGAAAGGTCGGCTGAGGTGAGTATACGGATAA and state if its PBM binding z-score is at or above 2.
Condition not met

Please check the record GGAACGAGGGCAAGTTGGTAGCAGAGTTTGATGG and state if its PBM binding z-score is at or above 2.
Condition met

Please check the record ATATGTAGGTTACATCCGGGTCATACAGGCTATG and state if its PBM binding z-score is at or above 2.
Condition met

Please check the record CAAACTGGGTCAAGGTCAAAGTCGGTTTGTGCCA and state if its PBM binding z-score is at or above 2.
Condition met

Please check the record AGTTACGGGTCAACGAGGTTATAGCACGCGTATA and state if its PBM binding z-score is at or above 2.
Condition met

Please check the record GCTCGGAGGCCAAGGTCAGAGCTTTGTCCGTAGA and state if its PBM binding z-score is at or above 2.
Condition not met

Please check the record TCAGACAGGTGAAGTTAACTCAGGTACGCAGTCG and state if its PBM binding z-score is at or above 2.
Condition met

###

# Test system: THRa:RXRa (NR concentration 90 nM, RXRa partner concentration 90 nM)
# Assay text: PBM binding z-score (relative to random genomic background probes); higher = stronger binding; sequences stand for … in GC…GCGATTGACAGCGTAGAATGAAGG
Quick rule for you: PBM binding z-score at 0.9 or higher means 1, lower means -1.

Please check the record CAGCCTTGGTCAGGGCCAGTATAGGAGGAACGTT and state if its PBM binding z-score is at or above 0.9.
-1

Please check the record AGAAAGAGGGCACGCTGAGTTGATAGCAGAGTAG and state if its PBM binding z-score is at or above 0.9.
1

Please check the record CGTCCACGGTCAATGCTAGGTCAGTGAAAGCATT and state if its PBM binding z-score is at or above 0.9.
1

Please check the record ATATGTAGGTTAGCTGGGGTCATTTAGACTAGGC and state if its PBM binding z-score is at or above 0.9.
1

Please check the record ACTAGCAGGCCAAGGGTCACTGAAGATTAGTCCG and state if its PBM binding z-score is at or above 0.9.
1

Please check the record TCAGACAGGTTAAGGTAACTCAGGTACGCAGTCG and state if its PBM binding z-score is at or above 0.9.
1

Please check the record TCATATAGGTAAATGCTAGGTGCAAGTCCGATCT and state if its PBM binding z-score is at or above 0.9.
-1

Please check the record TAGCCTAGGTCATTGGGCCAGTGTAGTACGCATC and state if its PBM binding z-score is at or above 0.9.
1

Please check the record CCGACTGGGGCAAAGTTTACCATACTCAGTACGA and state if its PBM binding z-score is at or above 0.9.
-1

Please check the record ATCTCTAGATAAAGTTCAGTGAAAGATCGATAGA and state if its PBM binding z-score is at or above 0.9.
-1

Please check the record CGAACGAGGGCATGAGTTGATATCAAATGCCGAT and state if its PBM binding z-score is at or above 0.9.
1
